Listed below: pIC50 values for each entry.
- Test system: SKOV3 tumor cells
- experimentNotes: Cellular assay, SKOV3 tumor cell proliferation (Cell Titer Glo)
- Format: cell-based
- measurementSetup: Homo sapiens, SK-OV-3, citrate salt form tested, 72 hour growth
pIC50: −log10 of the molar value.

compound: CN[C@@H](C)C(=O)N[C@@H](CCCCNC(=O)c1cccc(C(=O)NCCCC[C@H](NC(=O)[C@H](C)NC)C(=O)N2CCC[C@H]2c2cncc(C(=O)c3ccc(F)cc3)c2)c1)C(=O)N1CCC[C@H]1c1cncc(C(=O)c2ccc(F)cc2)c1 [Example 1E]
assayedSystem: SKOV3 tumor cells
quantity: pIC50
result: 7.10 to 7.57

Let us move to another entry and its pIC50.
Prompt: So what does the record say about pIC50 for CN[C@@H](C)C(=O)N[C@@H](CCCCNC(=O)CCCCCC(=O)NCCCC[C@H](NC(=O)[C@H](C)NC)C(=O)N1CCC[C@H]1c1cncc(C(=O)c2ccc(F)cc2)c1)C(=O)N1CCC[C@H]1c1cncc(C(=O)c2ccc(F)cc2)c1 [Example 1A] ?
Response: 7.11 to 7.39
